- Tested target: Telomeric repeat-binding factor 2 (Homo sapiens, UniProt Q15554)
- Sequence (Q15554 whole entry, the tested form may be a part): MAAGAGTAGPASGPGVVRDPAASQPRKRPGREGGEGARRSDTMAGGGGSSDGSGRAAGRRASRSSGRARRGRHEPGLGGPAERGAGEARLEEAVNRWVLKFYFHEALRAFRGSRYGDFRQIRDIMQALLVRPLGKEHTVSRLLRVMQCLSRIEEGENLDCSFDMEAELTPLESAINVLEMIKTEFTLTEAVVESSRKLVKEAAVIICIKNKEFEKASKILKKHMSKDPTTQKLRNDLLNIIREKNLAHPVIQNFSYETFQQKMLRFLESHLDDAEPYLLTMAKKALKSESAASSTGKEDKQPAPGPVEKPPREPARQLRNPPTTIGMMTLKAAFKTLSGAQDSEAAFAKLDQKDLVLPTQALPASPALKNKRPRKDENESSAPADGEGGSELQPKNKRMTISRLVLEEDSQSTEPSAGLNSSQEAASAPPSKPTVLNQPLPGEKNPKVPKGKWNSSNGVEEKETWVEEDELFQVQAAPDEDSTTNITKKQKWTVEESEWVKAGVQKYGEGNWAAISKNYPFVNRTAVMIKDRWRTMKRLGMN
- Procedure text: Displacement of 5-((2R,6S,9S,12S,15S,18S,21S,24S)-3-((S)-2-((S)-1-amino-3-methyl-1-oxobutan-2-ylcarbamoyl)pyrrolidine-1-carbonyl)-15-(4-aminobutyl)-2-hydroxy-12-(4-hydroxybenzyl)-6,9,18,24-tetraisobutyl-21-methyl-5,8,11,14,17,20,23,26,29-nonaoxo-4,7,10,13,16,19,22,25,28-nonaazatetratriacontan-34-ylcarbamoyl)-2-(6-hydroxy-3-oxo-3H-xanthen-9-yl)benzoic acid from TRF2 TRFH domain (unknown origin) after 30 mins by fluorescence polarization assay
Square brackets hold non-standard residues; d marks the D form. Peptide text beside a SMILES is read from it. tBuAla = CC(C)(C)C[C@H](N)C(=O)O; Cha = N[C@@H](CC1CCCCC1)C(=O)O
// values below are reported Ki
The reply should contain only the number, in µM.

For orientation, consider the following solved cases.
{"Molecule": "CC(C)C[C@H](NC(=O)[C@H](Cc1ccc(O)cc1)NC(=O)[C@@H](N)CCCCN)C(=O)N[C@@H](CC(C)C)C(=O)N[C@H](C(=O)N1CCC[C@H]1C(=O)N[C@H](C(=O)O)C(C)C)[C@@H](C)O (H-KYLLTPV-OH)", "Unit name": "µM", "Ki": 123}
{"Molecule": "CC(C)C[C@H](NC(=O)[C@H](C)NC(=O)[C@@H](N)CC(C)C)C(=O)N[C@@H](CCCCN)C(=O)N[C@@H](Cc1ccc(O)cc1)C(=O)N[C@@H](CC(C)C)C(=O)N[C@@H](CC(C)C)C(=O)N[C@H](C(=O)N1CCC[C@H]1C(=O)N[C@H](C(=O)O)C(C)C)[C@@H](C)O (H-LALKYLLTPV-OH)", "Unit name": "µM", "Ki": 2.2}
{"Molecule": "CC(=O)N[C@@H](CC(C)C)C(=O)N[C@@H](C)C(=O)N[C@@H](CC(C)C)C(=O)N[C@@H](CCCCN)C(=O)N[C@@H](Cc1ccc(O)cc1)C(=O)N[C@@H](CC(C)C)C(=O)N[C@@H](CC1CCCCC1)C(=O)N[C@H](C(=O)N1CCC[C@H]1C(=O)N[C@H](C(N)=O)C(C)C)[C@@H](C)O (Ac-LALKYL[Cha]TPV-NH2)", "Unit name": "µM", "Ki": 1.4}
{"Molecule": "CC(C)C[C@@H]1NC(=O)[C@@H](NC(=O)[C@@H](N)Cc2ccccc2)CCCCCCCC[C@@H](C(=O)N(C)C)NC(=O)[C@@H]2CCCN2C(=O)[C@H](C)NC1=O", "Unit name": "µM", "Ki": 43.2}
{"Molecule": "CC(=O)N[C@@H](CC(C)C)C(=O)N[C@@H](C)C(=O)N[C@@H](CC(C)C)C(=O)N[C@@H](CCCCN)C(=O)N[C@@H](Cc1ccc(O)cc1)C(=O)N[C@@H](CC(C)C)C(=O)N[C@@H](CC(C)(C)C)C(=O)N[C@H](C(=O)N1CCC[C@H]1C(=O)N[C@H](C(N)=O)C(C)C)[C@@H](C)O (Ac-LALKYL[tBuAla]TPV-NH2)", "Unit name": "µM", "Ki": 6.1}
{"Molecule": "CC[C@H](C)[C@H](NC(=O)[C@H](CC(C)C)NC(=O)[C@H](Cc1ccc(O)cc1)NC(=O)[C@H](CCCCN)NC(=O)[C@H](CC(C)C)NC(=O)[C@H](C)NC(=O)[C@H](CC(C)C)NC(C)=O)C(=O)N[C@H](C(=O)N1CCC[C@H]1C(=O)N[C@H](C(N)=O)C(C)C)[C@@H](C)O (Ac-LALKYLITPV-NH2)", "Unit name": "µM", "Ki": 11.3}

Now consider the entry below.
Task: Give the reported Ki for CC(=O)N[C@@H](CC(C)C)C(=O)N[C@@H](C)C(=O)N[C@@H](CC(C)C)C(=O)N[C@@H](CCCCN)C(=O)N[C@@H](Cc1ccc(O)cc1)C(=O)N[C@@H](CC(C)C)C(=O)N[C@@H](Cc1ccccc1)C(=O)N[C@H](C(=O)N1CCC[C@H]1C(=O)N[C@H](C(N)=O)C(C)C)[C@@H](C)O (Ac-LALKYLFTPV-NH2) (system: Telomeric repeat-binding factor 2 (Homo sapiens, UniProt Q15554)).
Result: 8.5
